Could you please report measured MFI for the items listed next?
biological target: T1, monkey SEMA4D, full length, on CHO-K1 cells (CHO-K1 cSEMA4D) (monkey); experiment: FACS, CHO-K1 cSEMA4D cells; Ab 0.534 nM
T1 construct: whole, on cells; also called monkey SEMA4D recombinant cells
Form field (numeric): enter value without unit.

Which MFI value is on record for 31G10C5 (antibody, V domains shown, Mouse monoclonal antibody purified from hybridoma supernatant on protein A) VH: EVQLQQSGAELVRPGASVKLSCTASGFNIKDDYIHWVKQRPEQGLEWIGWIDPANGHIEYASNFQAKATITADTSSNTAYLQLSSLTSEDTAVYYCTTGDYDGFTYWGQGTLVTVST VL: QIVLTQSPAIMSASPGEKVTISCSARSSVSYMYWYQQKPGSSPKPWIYRTSNLASGVPARFSGSGSGTSYSLTISSMEAEDAATYYCQHYHTYPYTFGGGTKLEIK ?
3490

Request: 42B7G2 (antibody, V domains shown, Mouse monoclonal antibody purified from hybridoma supernatant on protein A) VH: QVQLQQSGAELARPGASVKLSCKASGYTFTDYGISWVKQRTGQGLEWIGEIYLRNDNSYYNEKFKGKATLTADKSSNTAYMELRSLTSEDSAVYFCARWGDHGNNYEDAMDYWGQGTSVTVSS VL: DIVLTQSPASLAMSLGKRATISCRASESVSIIGSNLIHWYQQKPGQPPKLLIYHASNLETGVPARFSGSGSRTDFTLTIDPVEEDDVAIYYCLQSRKVPYTFGGGTKLEIK
1690
